Tested on: Acinetobacter baumannii DSM 30008
Type: cell-based
Conditions: DSM 30008
Where a SMILES comes first, the peptide text is derived from it. Bridges are numbered along the chain shown (N, C = ends). [ ]: non-standard residue; d: D form. Tle = CC(C)(C)[C@H](N)C(=O)O; dDab = NCC[C@@H](N)C(=O)O; Dab = NCC[C@H](N)C(=O)O; Dap = NC[C@H](N)C(=O)O
quantity measured: Acinetobacter baumannii DSM 30008 MIC
Kindly report the value followed by its unit.

Q) Quick one: Acinetobacter baumannii DSM 30008 MIC for CC(C)[C@@H]1NC(=O)[C@H](Cc2ccc(O)cc2)NC(=O)[C@@H](C)NC(=O)[C@H](CO)NC(=O)[C@@H]2CC(=O)NCC[C@H](NC1=O)C(=O)N[C@@H](Cc1ccc(O)cc1)C(=O)N[C@@H](CCN)C(=O)N[C@@H](CN)C(=O)N[C@H](CCN)C(=O)N[C@@H](CCN)C(=O)N[C@@H](Cc1c[nH]c3ccccc13)C(=O)N[C@@H](CN)C(=O)N[C@@H](C(C)(C)C)C(=O)N2 [Example 31] (cyclo(DS[dA]YV[Dab]Y[Dab][Dap][dDab][Dab]W[Dap][Tle]); lactam 1-6) ?
A) 4 µg/mL
